// data source = patent US20260274955A1

Would you mind telling me the reported IC50 of each entry?
Biological target: T1, Ab-1
T1 construct: also called anti-CD28 scFv harbored in Ab-1
Test: competition ELISA, peptide titrated vs 1 nM Ab-1 binding plate-bound CD28
No end group written: not given here.
Answers are plain numbers, in µM.

Below, each entry is followed by its recorded IC50 result.
Binder | IC50, µM
SDWCPRDLWVHCFA (cysteine pairing not given here; also: biotinylated, site not given here) [Peptide-15] | 2.63
PDWCPRDLWVHCFA (cysteine pairing not given here; also: biotinylated, site not given here) [Peptide-14] | 8.34
LDWCPRDLWVHCFA (cysteine pairing not given here; also: biotinylated, site not given here) [Peptide-11] | 0.63

Please turn your attention to the following entry.
Given the entry GDWCPRDLWVHCFA (cysteine pairing not given here; also: biotinylated, site not given here) [Peptide-8] , report its measured IC50. 7.06
